- Experiment Notes: Measured adsorption values of drugs on activated carbon
- Type: physicochemical
- Recorded Conditions: specific surface area 6800M^2/g
Param label: returns Satisfied when Adsorption value on activated carbon < 100 mg, returns Not satisfied otherwise, including exact equality.

> print(dat)
                                   compound  qualitative.label
1             O=c1cc[nH]c(=O)[nH]1 [uracil]          Satisfied
2  N.N.[Cl][Pt][Cl] [cisplatin, reference compound]      Not satisfied

Is it true that Adsorption value on activated carbon reported for Cc1c[nH]c(=O)[nH]c1=O [thymine] is less than 100 mg?
Satisfied

Determine whether this compound shows Adsorption value on activated carbon lower than 100 mg (ties excluded): S=c1nc[nH]c2nc[nH]c12 [Example 6-MP, 6-MP, reference compound]
Not satisfied

hey, is Adsorption value on activated carbon for O=c1[nH]cc(Cl)c(=O)[nH]1 [5-chlorouracil] lower than 100 mg or not?
Satisfied

====

- Experiment Notes: Measured adsorption values of drugs on hydroxyl-amino carbon
- Type: physicochemical
- Recorded Conditions: specific surface area 6800M^2/g
The following molecules are listed with their measured Adsorption value on hydroxyl-amino carbon values.
// units = mg; emit number, no label

> print(dat)
               molecule  units.symbol  quantitative.result
1     Nc1ncnc2nc[nH]c12            mg                  260
2  O=c1cc[nH]c(=O)[nH]1            mg                   51

Switching to the query record.
Quick one: Adsorption value on hydroxyl-amino carbon for ClC(Cl)Cl [chloroform] ?
4

====

- Experiment Notes: Measured adsorption values of drugs on activated carbon
- Format: physicochemical
- Recorded Conditions: specific surface area 6800M^2/g
Reported Adsorption value on activated carbon values are given for each entry in this list.
Remember to follow the number with its unit.

Would you please look over these solved cases?
> print(dat)
                   molecule                           metric.name  result
1    ClC(Cl)Cl [chloroform]  Adsorption value on activated carbon   10 mg
2  Nc1nc2nc[nH]c2c(=O)[nH]1  Adsorption value on activated carbon  331 mg

Requested field: Adsorption value on activated carbon. Item: Nc1ncnc2nc[nH]c12
213 mg

====

- Experiment Notes: Measured adsorption values of drugs on hydroxyl-amino carbon
- Format: physicochemical
- Recorded Conditions: specific surface area 6800M^2/g
Metric Name: Adsorption value on hydroxyl-amino carbon
Field: value (include unit after the number)

> print(dat)
                                   compound   result
1  O=c1[nH]cc(F)c(=O)[nH]1 [5-fluorouracil, reference compound]    49 mg
2        Nc1nc2nc[nH]c2c(=O)[nH]1 [guanine]   378 mg
3           Cc1c[nH]c(=O)[nH]c1=O [thymine]    17 mg
4  S=c1nc[nH]c2nc[nH]c12 [Example 6-MP, 6-MP, reference compound]   304 mg
5  N.N.[Cl][Pt][Cl] [cisplatin, reference compound]  1105 mg
6  O=P1(N(CCCl)CCCl)NCCCO1 (stereo not shown) [CTX, reference compound]   136 mg

# next compound below
Given O=c1[nH]cc(Cl)c(=O)[nH]1 [5-chlorouracil] , state its recorded Adsorption value on hydroxyl-amino carbon.
102 mg
